System: DNA
ASSAY NOTES: Detection of DNA binding by the compounds (Table 2)
MEASUREMENT CONDITIONS: yes = binding detected, empty cells not reported

{"columns": ["COMPOUND", "DNA (binding detected)"],
 "data": [
  ["O=C1C=C2C(=C[C@@]3(O)COc4cc(O)ccc4[C@@H]23)C=C1O [Compound 019]", "yes"],
  ["Oc1cc2c(cc1O)[C@@H]1c3cc(-c4ccc(F)cc4)c(O)cc3OC[C@]1(O)C2 [Compound 037]", "yes"],
  ["Oc1ccc2c(c1)OC[C@]1(O)Cc3cc(O)c(O)cc3[C@H]21 [Compound 033]", "yes"],
  ["Cc1ccc(S(=O)(=O)N2C[C@]3(O)Cc4cc(O)c(O)cc4[C@@H]3c3cc(-c4ccc(F)cc4)c(O)cc32)cc1 [Compound 039]", "yes"],
  ["COc1cc(/C=C2\\COc3cc(O)ccc3C2=O)ccc1O [Compound 007]", "yes"],
  ["O=C1/C(=C/c2ccc(O)c(O)c2)COc2cc(O)ccc21 [Compound 015]", "yes"],
  ["Cc1ccc(C)cc1 [Compound 026]", "yes"],
  ["Oc1ccc2c(c1)OC[C@](O)(Cc1ccc(O)c(O)c1)[C@H]2O [Compound 017]", "yes"],
  ["Cc1ccc2c(c1)OC/C(=C\\c1ccc(C)c(C)c1)C2=O [Compound 016]", "yes"]
]}

* * *

ASSAY NOTES: Absorbance and fluorescence scans (excitation and emission maxima)
Assay type: physicochemical
Design: unit not given here
MEASUREMENT CONDITIONS: compound alone; Table 6
Recorded Emission maxima, one value per entry.

{"columns": ["COMPOUND", "Emission maxima"],
 "data": [
  ["Cc1cc2c(cc1O)OC[C@]1(O)Cc3cc(O)c(O)cc3[C@H]21 [Compound 032]", 570],
  ["O=C1C=C2C(=C[C@@]3(O)COc4cc(O)ccc4[C@@H]23)C=C1O [Compound 019]", 570],
  ["O=C1/C(=C/c2ccc(O)c(O)c2)COc2cc(O)ccc21 [Compound 015]", 570],
  ["Cc1ccc(C)cc1 [Compound 026]", 580],
  ["Cc1ccc2c(c1)OC/C(=C\\c1ccc(C)c(C)c1)C2=O [Compound 016]", 610],
  ["Oc1cc2c(cc1O)[C@@H]1c3cc(-c4ccccc4)c(O)cc3OC[C@]1(O)C2 [Compound 035]", 580],
  ["CCc1cc(O)ccc1C(=O)/C=C/C1=CC(OC)C(O)C=C1 (stereo not shown) [Compound 031]", 610]
]}

* * *

Tested on: DNA
ASSAY NOTES: Emission maxima with DNA
Assay type: binding
MEASUREMENT CONDITIONS: Table 6
RECORDED ENDPOINT: Emission maxim with DNA (nm)

{"columns": ["MOLECULE", "VALUE UNIT", "NUMERIC READOUT"],
 "data": [
  ["Cc1ccc(C)cc1 [Compound 026]", "nm", 590],
  ["Oc1cc2c(cc1O)[C@@H]1c3cc(-c4ccccc4)c(O)cc3OC[C@]1(O)C2 [Compound 035]", "nm", 580],
  ["O=C1C=C2C(=C[C@@]3(O)COc4cc(O)ccc4[C@@H]23)C=C1O [Compound 019]", "nm", 570],
  ["Cc1ccc2c(c1)OC/C(=C\\c1ccc(C)c(C)c1)C2=O [Compound 016]", "nm", 610],
  ["Cc1cc2c(cc1O)OC[C@]1(O)Cc3cc(O)c(O)cc3[C@H]21 [Compound 032]", "nm", 570],
  ["CCc1cc(O)ccc1C(=O)/C=C/C1=CC(OC)C(O)C=C1 (stereo not shown) [Compound 031]", "nm", 610],
  ["O=C1/C(=C/c2ccc(O)c(O)c2)COc2cc(O)ccc21 [Compound 015]", "nm", 610]
]}
